Biological target: Dihydroorotate dehydrogenase (quinone), mitochondrial (Plasmodium falciparum (isolate 3D7)) (UniProt Q08210)
Sequence (Q08210 whole entry, looked up): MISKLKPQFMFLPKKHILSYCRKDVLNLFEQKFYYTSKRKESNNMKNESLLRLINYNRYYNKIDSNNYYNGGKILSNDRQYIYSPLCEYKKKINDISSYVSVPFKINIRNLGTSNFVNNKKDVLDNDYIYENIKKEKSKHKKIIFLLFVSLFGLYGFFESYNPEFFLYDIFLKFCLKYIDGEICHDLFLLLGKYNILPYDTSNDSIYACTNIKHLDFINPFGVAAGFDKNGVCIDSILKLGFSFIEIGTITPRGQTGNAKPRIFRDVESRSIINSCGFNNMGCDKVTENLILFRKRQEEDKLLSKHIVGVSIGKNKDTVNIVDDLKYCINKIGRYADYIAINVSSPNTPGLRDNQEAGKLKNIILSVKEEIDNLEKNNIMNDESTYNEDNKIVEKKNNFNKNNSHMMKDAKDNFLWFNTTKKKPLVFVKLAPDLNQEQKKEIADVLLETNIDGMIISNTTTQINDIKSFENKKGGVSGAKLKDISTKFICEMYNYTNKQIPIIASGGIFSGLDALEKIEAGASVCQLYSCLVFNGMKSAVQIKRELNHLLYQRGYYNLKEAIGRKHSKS
Assay: PfDHODH enzyme inhibitors, primary screen, biochemical, C-terminal His tag, absorbance 600 nm (AID 1175);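 also: recombinant parasite enzyme with a five histidine tag at its C terminus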
Conditions: DCIP absorbance 600 nm, higher = more signal, called active from +8 up or from −8 down
Grouping rule (composite z-score): bin 1: < -0.1; bin 2: ≥ -0.1 and < 0.8; bin 3: ≥ 0.8

Reference set (3 entries):
1) CC(C)C(CO)N1C(=O)[C@@H]2C3C(=O)OCCC/C=C\[C@H]3OC23C=CCN(C(C)C)C(=O)[C@@H]13 (some centres not stated) :: bin 1
2) CC(C)N1CC=CC23O[C@@H]4/C=C\CCCOC(=O)C4[C@H]2C(=O)N(CCCO)[C@@H]3C1=O (some centres not stated) :: bin 1
3) COc1ccc([Si](C)(C)[C@H]2[C@H](CC(=O)N(CCO)Cc3ccccc3)O[C@@]3(C(=O)N(Cc4ccc(N5CCC5=O)cc4)c4ccccc43)[C@@H]2C)cc1 :: bin 1

Problem: Determine which band this compound sits in: C=CCNC(=O)[C@@H]1[C@H]2C(=O)O[C@H](c3ccccc3)[C@H](c3ccccc3)N2[C@H](c2ccc(O)cc2)[C@@]12C(=O)Nc1ccccc12
Solution: bin 1

Problem: Bin? CCN(CC)c1ccc(N2CC=CC34O[C@@H]5C=CCOC(=O)[C@@H]5[C@H]3C(=O)N(C(CO)C(C)C)[C@@H]4C2=O)cc1 (some centres not stated)
Solution: bin 2

Problem: Sort Cc1ccc(N2C(=O)c3ccccc3[C@](C)(C(=O)NCC(F)(F)F)[C@@H]2c2ccc(CO)cc2)nc1 into one of the categories.
Solution: bin 2

---

Experiment: Cryptococcus neoformans growth inhibition, dose response, Alamar Blue, cherry-picks (AID 686998)
Settings: 24 h; series mostly up to 35 µM
Measured potencies and affinities stand elsewhere. Records with an inconclusive call do not appear. Active and inactive are the calls of the source.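 The calls were made as follows: active = falling signal with fitted half-maximal potency no higher than twice the top valid tested dose; inconclusive = poor fit quality, or flat fit spanning -70% to -30%; inactive = potency over limit, rising signal, or flat fit inside 30%.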
quantity-name: outcome

See these solved cases before continuing.
1) CC(C)NC(=O)Nc1ccc2c(c1)C(=O)N([C@@H](C)CO)C[C@H](C)[C@@H](CN(C)Cc1ccc3c(c1)OCO3)OCCCC[C@@H](C)O2 :: inactive
2) C[C@@H]1CCCCO[C@@H](CN(C)Cc2ccncc2)[C@@H](C)CN([C@H](C)CO)C(=O)c2cc(NC(=O)c3ccncc3)ccc2O1 :: inactive
3) CN1C(=O)N[C@@H]2c3ccccc3O[C@@]1(C)[C@@H]2COC(=O)c1ccccc1 :: inactive
4) CC(Sc1ncnc2c1cnn2-c1ccccc1)C(=O)Nc1ccc(N2CCOCC2)cc1 (stereo not drawn) :: inactive
5) C[C@H](NC(=O)C[C@@H]1C=C[C@H](NC(=O)CN2CCOCC2)[C@@H](CO)O1)c1ccccc1 :: inactive
6) CCC(=O)N(C)C[C@@H]1Oc2cc(C#CC(C)(C)O)ccc2S(=O)(=O)N([C@H](C)CO)C[C@H]1C :: inactive

So for COc1cccc(S(=O)(=O)N2C[C@@H](O)COC[C@H]3O[C@H](CC(=O)N4CCN(C)CC4)CC[C@@H]32)c1 , the logged outcome turned out to be inactive

# outcome of COc1ccc(-n2ncc3c(SCC(=O)OC(C)C)ncnc32)cc1 = inactive

outcome in this record for C[C@@H]1CCCCO[C@H](CN(C)C(=O)c2ccncc2)[C@H](C)CN([C@H](C)CO)C(=O)c2cc(NC(=O)CCC(F)(F)F)ccc2O1 : inactive

Item: Cc1cc(C(=O)Nc2ccc3c(c2)C(=O)N(C)[C@@H]2CC[C@@H](CC(=O)N[C@@H](C)c4ccccc4)O[C@@H]2CO3)no1 | outcome: inactive

Record CCNC(=O)Nc1ccc2c(c1)C(=O)N(C)[C@H]1CC[C@H](CC(=O)N[C@@H](C)c3ccccc3)O[C@H]1CO2 . Reported outcome: inactive

Lab book: outcome of CCCC#Cc1ccc2c(c1)O[C@@H](CN(C)C)[C@@H](C)CN([C@@H](C)CO)S2(=O)=O noted as inactive

Form field outcome, entry COCCNC(=O)C[C@@H]1C[C@@H]2c3cc(NC(=O)C4CCOCC4)ccc3O[C@@H]2[C@@H](CO)O1 : inactive

// CNC[C@@H]1OCCCC[C@H](C)Oc2ccc(NC(=O)NC(C)C)cc2C(=O)N([C@H](C)CO)C[C@H]1C : outcome value = inactive

Reported outcome of CO[C@H]1CN(C)C(=O)c2cc(NS(=O)(=O)c3ccc(C)cc3)ccc2OC[C@H](C)N(C)C[C@H]1C : inactive

The measured outcome associated with C[C@@H]1CN([C@H](C)CO)C(=O)c2cc(N(C)C)ccc2O[C@@H]1CN(C)C(=O)Nc1ccc(C(F)(F)F)cc1 reads inactive

Lab note: measured outcome of C[C@H]1CN([C@@H](C)CO)C(=O)Cc2cc(NC(=O)CCCCCC(=O)Nc3ccccc3N)ccc2O[C@H]1CN(C)Cc1ccc2c(c1)OCO2 was inactive

Measured outcome, Cc1cc(C(=O)NC(=S)Nc2ccccc2N2CCCC2)ccc1[N+](=O)[O-] : inactive

What the record says about CC(C)CC#Cc1cnc2c(c1)C(=O)N([C@H](C)CO)C[C@@H](C)[C@@H](CN(C)C(=O)c1ccc3c(c1)OCO3)O2 : outcome is inactive

Measured outcome of CCC(C)(C(=O)Nc1ccccc1C)N(C(=O)CNC(C)=O)c1ccc(C)cc1 (stereo not drawn) : inactive

Sample C[C@@H](NC(=O)C[C@@H]1CC[C@@H]2[C@H](COC[C@H](O)CN2Cc2cc(F)ccc2F)O1)c1ccccc1 ; outcome observed: inactive

---

Target: Neurogenic locus notch homolog protein 2 (Homo sapiens)
Assay: Notch2 binders on small-molecule microarrays, primary screen, biochemical, small-molecule microarray, 635 nm fluorescence, stem cell growth factors (AID 1073)
Details: Notch2 binding, higher = more signal
Mark Criterion not met for composite z-score values under 0.004, and Criterion met for everything at or above.

1. COC(=O)C1=CC(c2ccc(CO)cc2)=CC(C2CC2)N(C)C=C1C(=O)OC (centres undefined) :: Criterion met

Problem: Does the molecule CC(C)CNC(=O)[C@@H]1c2ccccc2C(=O)N(Cc2ccc(OC(F)(F)F)cc2)[C@H]1c1ccc(CO)cc1 have recorded composite z-score that is 0.004 or more?
Solution: Criterion met

Problem: Confirm if composite z-score reported for the molecule C=CCN1C(=O)[C@@]2(O[C@@H](CCn3cc(CCO)nn3)[C@H]([Si](C)(C)c3ccc(OC)cc3)[C@H]2C)c2cc(N3C(=O)c4cccc5cccc3c45)ccc21 is 0.004 or above.
Solution: Criterion met

Problem: composite z-score >= 0.004 for COc1ccc([Si](C)(C)[C@H]2[C@H](CC(=O)N3Cc4ccccc4C[C@H]3CO)O[C@@]3(C(=O)N(Cc4cccc(N5C(=O)COc6ccccc65)c4)c4ccccc43)[C@@H]2C)cc1 ?
Solution: Criterion met

Problem: Exam item: decide whether the reported composite z-score for C=CC[C@@H](OC(=O)Nc1ccc(SC)cc1)c1ccc(OCCO)cc1 is at least 0.004.
Solution: Criterion not met

---

Experiment: compound binding in COS7 lysate, probe aLAP1, primary screen, cell lysate, small-molecule microarray (AID 1124);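 also: lysate comes from COS7 cells expressing LAP1 and is applied at 0.3 µg/mL; score merges spot fluorescence near 667 nm with signal-to-noise over triplicate slides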
Conditions: probe aLAP1, fluorescence, higher = more signal
Property: composite z-score; scope: individual compounds
// return just the number, without any unit appended

1) COc1ccc([Si](C)(C)[C@H]2[C@H](CC(=O)N(CCO)Cc3ccccc3)O[C@@]3(C(=O)N(Cc4cccc(N5C(=O)COc6ccccc65)c4)c4ccccc43)[C@@H]2C)cc1 :: -0.045
2) COc1ccc(/C=C/C(=O)c2cccc(OCC(=O)OC(C)(C)C)c2)cc1 :: 0.651
3) CC(C)C(CO)N1C(=O)[C@@H]2[C@H]3C(=O)OCC=C[C@H]3OC23C=CCN(Cc2ccccc2)C(=O)[C@@H]13 (some centres not stated) :: -0.733
4) CC1CC/C=C\[C@H]2OC34C=CCN(C(C)C)C(=O)[C@H]3N(C(CO)C(C)C)C(=O)[C@@H]4C2C(=O)O1 (some centres not stated) :: -0.0978

Memo: CC(C)(C)OC(=O)CC[C@@]12N=C(c3ccc(OCCCO)cc3)O[C@@H]1c1ccccc1N(Cc1ccccc1)C2=O , reported composite z-score: 0.583

According to the records, this compound NC(=O)NCC#Cc1ccc2c(c1)[C@]1(C(=O)N2)[C@H](c2ccc(OCCO)cc2)N2[C@H](c3ccccc3)[C@H](c3ccccc3)OC(=O)[C@H]2[C@@H]1C(=O)Nc1nc2ccccc2s1 displays composite z-score of 0.436

Form: compound = C#CCN1C(C(=O)OCC)OC[C@H]1c1ccccc1 (some centres not stated) ; composite z-score = 0.847

---

Biological target: Dickkopf-related protein 1 (Homo sapiens) (UniProt O94907)
Sequence (O94907 whole entry, looked up): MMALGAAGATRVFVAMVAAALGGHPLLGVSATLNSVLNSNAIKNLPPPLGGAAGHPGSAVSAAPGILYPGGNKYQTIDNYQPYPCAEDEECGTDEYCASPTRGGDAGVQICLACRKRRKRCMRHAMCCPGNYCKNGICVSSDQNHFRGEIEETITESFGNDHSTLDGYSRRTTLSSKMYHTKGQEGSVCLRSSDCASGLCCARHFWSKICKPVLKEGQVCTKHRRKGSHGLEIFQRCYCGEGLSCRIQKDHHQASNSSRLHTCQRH
Experiment: DKK1 binders on small-molecule microarrays, primary screen, biochemical, small-molecule microarray, 635 nm fluorescence scan (AID 1106);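 also: score merges emission near 667 nm with signal to noise over three replicate slides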
Settings: DKK1 binding, higher = more signal
# Lookup of reported composite z-score keyed by entry

Worked cases, answers included:
1) C=C(COC)C(=O)CC[C@@H](OC(=O)c1ccccc1-c1ccccc1C(=O)O)c1cccc(OCCO)c1 :: -0.0221
2) CC(C)N1C(=O)c2ccccc2[C@@H](C(=O)NCc2ccccc2)[C@@H]1c1ccc(CO)cc1 :: -0.319
3) CC(C)C[C@@H]1NC(=O)[C@@]23C(=O)N[C@@H](Cc4ccccc4)C2[C@H](C)[C@@]2(C)O[C@H]2C3/C=C/CC/C=C/CNC(=O)[C@@H](C)NC1=O (some centres undefined) :: 0.81

Response field composite z-score (Dickkopf-related protein 1 (Homo sapiens) (UniProt O94907)) for item CCOC(=O)C[C@H]1[C@H](OC(=O)Cc2ccc3c(c2)OCO3)[C@@H](NC(=O)c2ccc3ccccc3c2)c2cc(OCCCO)ccc2N1C(=O)c1ccc2ccccc2n1 : 0.121
